# experimental_protocol: Inhibition of melanogenesis in mouse B16-4A5 cells at 1 uM after 72 hrs by spectrophotometry relative to control
# Type: functional
# conditions: B16-4A5, 72 h
The following compounds are listed with their measured inhibition at 1 µM values.
value_type: inhibition at 1 µM (%)

>>> test_result("C=C1CC[C@@H](O)[C@]2(C)CC[C@@H](C(C)C)[C@H](O)[C@@H]12")
42.3
>>> test_result("CO[C@@H]1C[C@]2(CC[C@H](COC(=O)/C=C/c3ccc(O)c(O)c3)C[C@@H]2O)[C@@H](OC)O1")
34.7
>>> test_result("O=C(OC[C@H]1CC[C@](CO)(CCO[C@@H]2O[C@H](CO)[C@@H](O)[C@H](O)[C@H]2O)[C@@H](O)C1)C(=C/c1ccc(O)cc1)/C(=C\\c1ccc(O)c(O)c1)C(=O)OC[C@H]1CC[C@](CO)(CCO[C@@H]2O[C@H](CO)[C@@H](O)[C@H](O)[C@H]2O)[C@@H](O)C1")
22.3

----------
# experimental_protocol: Inhibition of melanogenesis in mouse B16-4A5 cells at 3 uM after 72 hrs by spectrophotometry relative to control
# Type: functional
# conditions: B16-4A5, 72 h
value_type: inhibition at 3 µM (%)

>>> test_result("OC[C@H]1CC[C@](CO)(CCO[C@@H]2O[C@H](CO)[C@@H](O)[C@H](O)[C@H]2O)[C@@H](O)C1")
17.9
>>> test_result("CC1(C)C[C@H](OC(=O)c2ccccc2)[C@@]23CC[C@@H](O)[C@@](C)(CC[C@H]12)C3")
40.2
>>> test_result("C=C1/C=C/[C@H](C(C)C)CCC(=C)[C@H](O)CC1")
30.5
>>> test_result("CC(C)[C@@H]1CC[C@@]2(C)[C@H](O)CCC(C=O)=C[C@@H]12 [APHANAMOL II]")
34.3
>>> test_result("CC(C)[C@H]1CC[C@]2(C)[C@@H](O)CCC(C=O)=C[C@@H]12")
9.2

----------
# experimental_protocol: Inhibition of melanogenesis in mouse B16-4A5 cells at 1 uM after 72 hrs by spectrophotometry relative to control
# Type: functional
# conditions: B16-4A5, 72 h
value_type: inhibition at 1 µM

>>> test_result("O=C(OC[C@H]1CC[C@](CO)(CCO)[C@@H](O)C1)C(=C/c1ccc(O)cc1)/C(=C\\c1ccc(O)c(O)c1)C(=O)OC[C@H]1CC[C@](CO)(CCO)[C@@H](O)C1")
"36.1%"
>>> test_result("CC(C)[C@@H]1CC[C@@]2(C)[C@H](O)CCC(C=O)=C[C@@H]12")
"37.6%"
>>> test_result("COC(=O)C(=C/c1ccc(OC)cc1)/C(=C\\c1ccc(OC)c(OC)c1)C(=O)OC")
"49%"
>>> test_result("OCC[C@@]1(CO)CC[C@H](CO)C[C@@H]1O")
"45%"
>>> test_result("O=C[C@]1(CCO[C@@H]2O[C@H](CO)[C@@H](O)[C@H](O)[C@H]2O)CC[C@H](COC(=O)C(=C/c2ccc(O)cc2)/C(=C\\c2ccc(O)c(O)c2)C(=O)OC[C@H]2CC[C@](C=O)(CCO[C@@H]3O[C@H](CO)[C@@H](O)[C@H](O)[C@H]3O)[C@@H](O)C2)C[C@@H]1O")
"8.1%"
>>> test_result("COc1ccc(/C=C(C(=O)OC[C@H]2CC[C@](CO)(CCO)[C@@H](O)C2)\\C(=C/c2ccc(OC)c(OC)c2)C(=O)OC[C@H]2CC[C@](CO)(CCO)[C@@H](O)C2)cc1")
"34.4%"

----------
# experimental_protocol: Inhibition of melanogenesis in mouse B16-4A5 cells after 72 hrs by spectrophotometry relative to control
# Type: functional, cell-based
# conditions: Mus musculus, B16-4A5, 72 h; read-out: IC50
value_type: IC50 (µM)

>>> test_result("OCC[C@@]1(CO)CC[C@H](CO)C[C@@H]1O")
2
>>> test_result("O=C(OC[C@H]1CC[C@](CO)(CCO)[C@@H](O)C1)C(=C/c1ccc(O)cc1)/C(=C\\c1ccc(O)c(O)c1)C(=O)OC[C@H]1CC[C@](CO)(CCO)[C@@H](O)C1")
5
>>> test_result("OC[C@H]1O[C@@H](Oc2ccc(O)cc2)[C@H](O)[C@@H](O)[C@@H]1O [ARBUTIN]")
174
>>> test_result("CC1(C)C[C@H](OC(=O)c2ccccc2)[C@@]23CC[C@@H](O)[C@@](C)(CC[C@H]12)C3")
3

----------
# experimental_protocol: Inhibition of melanogenesis in mouse B16-4A5 cells at 3 uM after 72 hrs by spectrophotometry relative to control
# Assay type: functional
# conditions: B16-4A5, 72 h
value_type: inhibition at 3 µM (%)

>>> test_result("C=C1CC[C@@H](O)[C@]2(C)CC[C@@H](C(C)C)[C@H](O)[C@@H]12")
39.7
>>> test_result("O=C[C@]1(/C=C\\O[C@@H]2O[C@H](CO)[C@@H](O)[C@H](O)[C@H]2O)CC[C@H](COC(=O)C2=Cc3cc(O)c(O)cc3[C@@H](c3ccc(O)cc3)[C@@H]2C(=O)OC[C@H]2CC[C@](C=O)(/C=C\\O[C@@H]3O[C@H](CO)[C@@H](O)[C@H](O)[C@H]3O)[C@@H](O)C2)C[C@@H]1O")
8.7
>>> test_result("CC(C)[C@@H]1CC[C@@](C)(O)[C@@H]2CCC(C=O)=C[C@H]21")
45.5
>>> test_result("O=C[C@]1(/C=C\\O[C@@H]2O[C@H](CO)[C@@H](O)[C@H](O)[C@H]2O)CC[C@H](COC(=O)C(=C/c2ccc(O)cc2)/C(=C\\c2ccc(O)c(O)c2)C(=O)OC[C@H]2CC[C@](C=O)(/C=C\\O[C@@H]3O[C@H](CO)[C@@H](O)[C@H](O)[C@H]3O)[C@@H](O)C2)C[C@@H]1O")
30.2
>>> test_result("O=C(OC[C@H]1CC[C@](CO)(CCO[C@@H]2O[C@H](CO)[C@@H](O)[C@H](O)[C@H]2O)[C@@H](O)C1)C(=C/c1ccc(O)cc1)/C(=C\\c1ccc(O)c(O)c1)C(=O)OC[C@H]1CC[C@](CO)(CCO[C@@H]2O[C@H](CO)[C@@H](O)[C@H](O)[C@H]2O)[C@@H](O)C1")
27.2
>>> test_result("O=C(OC[C@H]1CC[C@](CO)(CCO)[C@@H](O)C1)C(=C/c1ccc(O)cc1)/C(=C\\c1ccc(O)c(O)c1)C(=O)OC[C@H]1CC[C@](CO)(CCO)[C@@H](O)C1")
45
>>> test_result("COc1ccc(/C=C(C(=O)OC[C@H]2CC[C@](CO)(CCO)[C@@H](O)C2)\\C(=C/c2ccc(OC)c(OC)c2)C(=O)OC[C@H]2CC[C@](CO)(CCO)[C@@H](O)C2)cc1")
24.1
>>> test_result("O=C[C@]1(CCO[C@@H]2O[C@H](CO)[C@@H](O)[C@H](O)[C@H]2O)CC[C@H](COC(=O)C(=C/c2ccc(O)cc2)/C(=C\\c2ccc(O)c(O)c2)C(=O)OC[C@H]2CC[C@](C=O)(CCO[C@@H]3O[C@H](CO)[C@@H](O)[C@H](O)[C@H]3O)[C@@H](O)C2)C[C@@H]1O")
18
>>> test_result("COC(=O)C(=C/c1ccc(OC)cc1)/C(=C\\c1ccc(OC)c(OC)c1)C(=O)OC")
48.4

----------
# experimental_protocol: Inhibition of melanogenesis in mouse B16-4A5 cells at 30 uM after 72 hrs by spectrophotometry relative to control
# Format: functional
# conditions: B16-4A5, 72 h
value_type: inhibition at 30 µM (%)

>>> test_result("CC(C)[C@@H]1CC[C@@](C)(O)[C@@H]2CCC(C=O)=C[C@H]21")
65.9
>>> test_result("O=C[C@]1(/C=C\\O[C@@H]2O[C@H](CO)[C@@H](O)[C@H](O)[C@H]2O)CC[C@H](COC(=O)/C=C/c2ccc(O)c(O)c2)C[C@@H]1O")
11.4
>>> test_result("O=C(OC[C@H]1CC[C@](CO)(CCO[C@@H]2O[C@H](CO)[C@@H](O)[C@H](O)[C@H]2O)[C@@H](O)C1)C(=C/c1ccc(O)cc1)/C(=C\\c1ccc(O)c(O)c1)C(=O)OC[C@H]1CC[C@](CO)(CCO[C@@H]2O[C@H](CO)[C@@H](O)[C@H](O)[C@H]2O)[C@@H](O)C1")
32.3
>>> test_result("CO[C@H]1C[C@]2(CC[C@H](COC(=O)/C=C/c3ccc(O)c(O)c3)C[C@@H]2O)[C@H](OC)O1")
60
>>> test_result("C=C1CC[C@@H](O)[C@]2(C)CC[C@@H](C(C)C)[C@H](O)[C@@H]12")
54.7
>>> test_result("OCC[C@@]1(CO)CC[C@H](CO)C[C@@H]1O")
51.6
>>> test_result("O=C[C@]1(/C=C\\O[C@@H]2O[C@H](CO)[C@@H](O)[C@H](O)[C@H]2O)CC[C@H](COC(=O)C(=C/c2ccc(O)cc2)/C(=C\\c2ccc(O)c(O)c2)C(=O)OC[C@H]2CC[C@](C=O)(/C=C\\O[C@@H]3O[C@H](CO)[C@@H](O)[C@H](O)[C@H]3O)[C@@H](O)C2)C[C@@H]1O")
34.8
